Molecular target: T1, cynomolgus monkey PVRIG (Novoprotein, Cat NO. C09B) (cynomolgus monkey, UniProt A0A2K5WVV8 41-171)
T1 construct: also called cynomolgus monkey PVRIG protein
T1 sequence: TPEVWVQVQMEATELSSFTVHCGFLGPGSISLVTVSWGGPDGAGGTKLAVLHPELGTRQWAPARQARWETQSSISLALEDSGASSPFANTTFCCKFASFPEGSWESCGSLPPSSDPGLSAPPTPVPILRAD
Assay: ELISA, antigen coated
pEC50: −log10 of the molar value.
Output rule met for pEC50 not less than 10; output rule not met otherwise.

BINDER: PVRIG-A105-H1 (Fc fusion, humanized variant of PVRIG-A105; also called A105.VH1; not shown: constant part not restated for the humanized forms; parents are VHH-hinge-CH2-CH3 of human IgG1; detected by anti-human) EVQLVESGGGLVQPGGSLRLSCAASGRTFDRHTMSWFRQAPGKEREFVATASRIPGDTYYVDSVKGRFTISRDNAKNSLYLQMNSLRAEDTAVYYCAATSAYCSEVDCYEKGSWYDNWGQGTMVTVSS
ASSIGNED CLASS: rule met
--
BINDER: PVRIG-A118-H1 (Fc fusion, humanized variant of PVRIG-A118; also called A118.VH1; not shown: constant part not restated for the humanized forms; parents are VHH-hinge-CH2-CH3 of human IgG1; detected by anti-human) EVQLVESGGGLVQPGGSLRLSCAASETYFDLYVMGWYRQAPGKDRELVATITYTGSIYYVDSVKGRFTISRDNAKNSLYLQMNSLRAEDTAVYYCNADPSGLGRKVYWGQGTMVTVSS
ASSIGNED CLASS: rule not met
--
BINDER: PVRIG-A118-H2 (Fc fusion, humanized variant of PVRIG-A118; also called A118.VH2; not shown: constant part not restated for the humanized forms; parents are VHH-hinge-CH2-CH3 of human IgG1; detected by anti-human) EVQLVESGGGLVQPGGSLRLSCAASETYFDLYVMGWYRQAPGKDRELVATITYTGSIKYVDSVKGRFTISRDNAKNSLYLQMNSLRAEDTAVYYCNADPSGLGRKVYWGQGTMVTVSS
ASSIGNED CLASS: rule not met

Cited source for all entries: patent US20240343803A1
